# target.desc: T1, 4H3049-AA
# T1 chain: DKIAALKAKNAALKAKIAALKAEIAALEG
# run.description: two-hybrid library CCmax;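 note: natural log of median RNA to DNA barcode read ratio; higher means stronger binding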
# test.settings: mean of both orientations
Classify: MET when interaction score is strictly less than 0.8; NOT MET when interaction score is not.

Study these solved cases before continuing.
>>> discrete_label("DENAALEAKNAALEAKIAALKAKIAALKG [4H1454-AA]")
"MET"
>>> discrete_label("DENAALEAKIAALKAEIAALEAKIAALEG [4H1349-AA]")
"MET"
>>> discrete_label("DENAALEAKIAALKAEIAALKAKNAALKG [4H1360-AA]")
"MET"
>>> discrete_label("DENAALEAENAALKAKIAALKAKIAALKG [4H1262-AA]")
"NOT MET"
>>> discrete_label("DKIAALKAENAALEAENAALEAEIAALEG [4H2705-AA]")
"NOT MET"

For this binder, is interaction score lower than 0.8? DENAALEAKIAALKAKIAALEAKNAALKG [4H1384-AA] MET

Lab note: confirm whether the reported interaction score for this binder is below 0.8, equality not counting. binder: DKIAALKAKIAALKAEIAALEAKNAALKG [4H2888-AA] MET

Hello, is interaction score of the following binder strictly smaller than 0.8? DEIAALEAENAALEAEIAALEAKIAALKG [4H134-AA] NOT MET

A record lists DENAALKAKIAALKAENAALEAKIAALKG [4H1878-AA] . Is its interaction score below 0.8? MET

Quick check: does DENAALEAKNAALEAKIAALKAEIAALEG [4H1449-AA] have interaction score under 0.8? MET

Confirm or reject: interaction score of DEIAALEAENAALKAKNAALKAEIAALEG [4H249-AA] lies strictly below 0.8 MET

Determine whether this binder shows interaction score lower than 0.8 (ties excluded): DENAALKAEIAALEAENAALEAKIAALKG [4H1558-AA] NOT MET

I wonder whether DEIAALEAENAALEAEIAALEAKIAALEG [4H133-AA] has interaction score below 0.8. Can you tell? NOT MET

Record DKIAALKAENAALEAKIAALEAKNAALKG [4H2728-AA] : is its interaction score strictly below 0.8? NOT MET
